Target: T1, cynomolgus monkey TF ECD-His6 (cynomolgus monkey (Macaca fascicularis))
T1 construct: Expi293-derived; also called TF-His; cTF
T1 chain: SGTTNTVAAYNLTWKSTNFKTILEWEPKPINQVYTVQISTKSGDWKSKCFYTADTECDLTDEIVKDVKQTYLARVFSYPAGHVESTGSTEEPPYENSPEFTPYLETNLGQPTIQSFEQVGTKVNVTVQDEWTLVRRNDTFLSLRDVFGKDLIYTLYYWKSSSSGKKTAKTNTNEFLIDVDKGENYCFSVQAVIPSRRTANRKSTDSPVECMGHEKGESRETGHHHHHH
Assay: BLI (ForteBio Octet)

[
  {
    "binder": "25A3 (antibody, human IgG1, V domains shown, Human IgG1; also called antibody designated 25A3) VH: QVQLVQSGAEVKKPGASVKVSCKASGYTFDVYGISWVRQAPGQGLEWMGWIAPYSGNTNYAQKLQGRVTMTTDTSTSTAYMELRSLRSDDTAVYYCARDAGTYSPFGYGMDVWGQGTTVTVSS VL: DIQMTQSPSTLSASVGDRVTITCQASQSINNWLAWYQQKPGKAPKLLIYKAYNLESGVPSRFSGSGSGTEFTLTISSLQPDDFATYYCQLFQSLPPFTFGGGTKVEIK",
    "Kd [nM]": 1.36
  },
  {
    "binder": "43B7 (antibody, human IgG1, V domains shown, Human IgG1; also called antibody designated 43B7) VH: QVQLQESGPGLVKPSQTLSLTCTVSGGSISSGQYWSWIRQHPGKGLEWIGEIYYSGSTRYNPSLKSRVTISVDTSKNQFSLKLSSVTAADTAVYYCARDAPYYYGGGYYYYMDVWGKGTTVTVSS VL: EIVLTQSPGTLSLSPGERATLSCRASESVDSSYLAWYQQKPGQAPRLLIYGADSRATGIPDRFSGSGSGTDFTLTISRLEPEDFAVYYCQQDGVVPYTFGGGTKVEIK",
    "Kd [nM]": 0.94
  },
  {
    "binder": "43D (antibody, human IgG1, V domains shown, Human IgG1; also called antibody designated 43D) VH: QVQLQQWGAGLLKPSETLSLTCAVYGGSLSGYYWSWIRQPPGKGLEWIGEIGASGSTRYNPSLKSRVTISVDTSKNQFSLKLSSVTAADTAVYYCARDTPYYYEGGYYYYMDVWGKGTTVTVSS VL: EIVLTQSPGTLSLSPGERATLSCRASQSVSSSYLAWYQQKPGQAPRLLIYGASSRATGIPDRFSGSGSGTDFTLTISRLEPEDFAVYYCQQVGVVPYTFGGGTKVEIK",
    "Kd [nM]": 4.12
  },
  {
    "binder": "43B (antibody, human IgG1, V domains shown, Human IgG1; also called antibody designated 43B) VH: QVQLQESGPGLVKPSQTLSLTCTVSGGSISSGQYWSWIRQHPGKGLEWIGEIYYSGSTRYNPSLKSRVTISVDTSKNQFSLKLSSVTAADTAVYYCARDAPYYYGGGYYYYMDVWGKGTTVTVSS VL: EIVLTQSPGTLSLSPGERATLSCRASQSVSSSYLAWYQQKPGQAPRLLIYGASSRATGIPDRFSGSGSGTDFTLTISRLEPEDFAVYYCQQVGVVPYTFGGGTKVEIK",
    "Kd [nM]": 3.4
  },
  {
    "binder": "25G9 (antibody, human IgG1, V domains shown, Human IgG1; also called antibody designated 25G9) VH: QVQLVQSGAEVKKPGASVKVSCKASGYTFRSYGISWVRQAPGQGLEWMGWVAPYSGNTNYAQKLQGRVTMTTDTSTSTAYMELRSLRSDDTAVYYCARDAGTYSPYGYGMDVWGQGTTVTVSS VL: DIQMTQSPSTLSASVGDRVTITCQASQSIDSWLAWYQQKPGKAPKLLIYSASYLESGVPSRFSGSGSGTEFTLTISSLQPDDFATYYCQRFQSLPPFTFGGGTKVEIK",
    "Kd [nM]": 42.9
  },
  {
    "binder": "25G1 (antibody, human IgG1, V domains shown, Human IgG1; also called antibody designated 25G1) VH: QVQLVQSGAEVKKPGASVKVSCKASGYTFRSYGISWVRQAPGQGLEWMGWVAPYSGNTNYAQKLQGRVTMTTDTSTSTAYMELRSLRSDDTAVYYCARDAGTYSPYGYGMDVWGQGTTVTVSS VL: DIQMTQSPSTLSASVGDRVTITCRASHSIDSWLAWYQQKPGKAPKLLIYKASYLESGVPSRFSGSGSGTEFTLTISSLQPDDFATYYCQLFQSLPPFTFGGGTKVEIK",
    "Kd [nM]": 4.99
  },
  {
    "binder": "39A (antibody, human IgG1, V domains shown, Human IgG1; also called antibody designated 39A) VH: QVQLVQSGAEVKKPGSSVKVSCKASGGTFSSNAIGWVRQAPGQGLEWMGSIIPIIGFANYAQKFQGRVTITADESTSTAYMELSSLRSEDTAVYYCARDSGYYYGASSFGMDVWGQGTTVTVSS VL: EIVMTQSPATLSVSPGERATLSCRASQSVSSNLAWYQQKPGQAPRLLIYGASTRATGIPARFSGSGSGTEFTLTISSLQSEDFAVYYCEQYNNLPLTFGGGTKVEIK",
    "Kd [nM]": 0.57
  },
  {
    "binder": "54E (antibody, human IgG1, V domains shown, Human IgG1; also called antibody designated 54E) VH: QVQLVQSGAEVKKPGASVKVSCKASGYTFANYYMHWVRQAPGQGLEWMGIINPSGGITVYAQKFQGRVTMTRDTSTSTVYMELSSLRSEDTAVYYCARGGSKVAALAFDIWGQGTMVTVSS VL: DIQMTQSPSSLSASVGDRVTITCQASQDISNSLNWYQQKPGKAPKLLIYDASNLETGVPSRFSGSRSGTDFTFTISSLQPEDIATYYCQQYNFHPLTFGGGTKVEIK",
    "Kd [nM]": 4.16
  },
  {
    "binder": "25A (antibody, human IgG1, V domains shown, Human IgG1; also called antibody designated 25A) VH: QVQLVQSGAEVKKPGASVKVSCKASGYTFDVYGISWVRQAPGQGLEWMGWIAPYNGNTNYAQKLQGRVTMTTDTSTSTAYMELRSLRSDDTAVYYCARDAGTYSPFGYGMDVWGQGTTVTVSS VL: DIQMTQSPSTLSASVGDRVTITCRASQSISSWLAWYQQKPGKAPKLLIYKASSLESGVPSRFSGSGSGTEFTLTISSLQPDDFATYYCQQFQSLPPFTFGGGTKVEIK",
    "Kd [nM]": 7.65
  },
  {
    "binder": "25G (antibody, human IgG1, V domains shown, Human IgG1; also called antibody designated 25G) VH: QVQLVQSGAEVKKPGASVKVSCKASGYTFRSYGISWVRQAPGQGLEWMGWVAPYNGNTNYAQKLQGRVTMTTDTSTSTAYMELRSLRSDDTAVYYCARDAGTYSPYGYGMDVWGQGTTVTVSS VL: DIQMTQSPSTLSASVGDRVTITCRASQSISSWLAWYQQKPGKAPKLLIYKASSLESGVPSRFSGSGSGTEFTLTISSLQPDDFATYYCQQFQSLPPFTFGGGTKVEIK",
    "Kd [nM]": 17.5
  }
]
